Test system: A549/ATCC
assay: cells
study conditions: Homo sapiens, A549, 48 h, read-out: LC50

>  <molecule>
CN(C)c1nc(NCCNS(=O)(=O)c2ccc(C(=O)/C=C/c3ccc(F)cc3)cc2)nc(Nc2ccc(F)cc2)n1 [24f]

>  <units of measure>
µM

>  <op>
=

>  <CC50>
14.2

$$$$
>  <molecule>
CN(C)c1nc(NCCNS(=O)(=O)c2ccc(C(=O)/C=C/c3ccc(C(F)(F)F)cc3)cc2)nc(Nc2ccc(F)cc2)n1 [24g]

>  <units of measure>
µM

>  <op>
=

>  <CC50>
25.4

$$$$
>  <molecule>
CN(C)c1nc(NCCNS(=O)(=O)c2ccc(C3=Nc4c(N)nc(N)nc4NC(c4ccc(F)cc4)C3)cc2)nc(Nc2ccc(F)cc2)n1 (stereo not shown) [31f]

>  <units of measure>
µM

>  <op>
>

>  <CC50>
100

$$$$
>  <molecule>
CN(C)c1nc(NCCNS(=O)(=O)c2ccc(C(=O)/C=C/c3ccc(F)cc3)cc2)nc(N2CCOCC2)n1 [23f]

>  <units of measure>
µM

>  <op>
=

>  <CC50>
56.8

$$$$
>  <molecule>
COc1cc(/C=C/C(=O)c2ccc(S(=O)(=O)NCCNc3nc(N(C)C)nc(N4CCOCC4)n3)cc2)cc(OC)c1OC [23d]

>  <units of measure>
µM

>  <op>
=

>  <CC50>
43.9

$$$$
>  <molecule>
Cc1ccc(C2CC(c3ccc(S(=O)(=O)NCCNc4nc(Nc5ccc(F)cc5)nc(N(C)C)n4)cc3)=Nc3c(N)nc(N)nc3N2)cc1 (stereo not shown) [31b]

>  <units of measure>
µM

>  <op>
>

>  <CC50>
100

$$$$
>  <molecule>
COc1cc(/C=C/C(=O)c2cc(OC)c(OC)c(OC)c2)ccc1Oc1nc(Nc2ccc(F)cc2)nc(N(C)C)n1 [21d]

>  <units of measure>
µM

>  <op>
=

>  <CC50>
54.7

$$$$
